- TARGET_OR_TEST_SYSTEM: FGFR3 (UniProt P22607)
- Sequence (P22607 whole entry, looked up): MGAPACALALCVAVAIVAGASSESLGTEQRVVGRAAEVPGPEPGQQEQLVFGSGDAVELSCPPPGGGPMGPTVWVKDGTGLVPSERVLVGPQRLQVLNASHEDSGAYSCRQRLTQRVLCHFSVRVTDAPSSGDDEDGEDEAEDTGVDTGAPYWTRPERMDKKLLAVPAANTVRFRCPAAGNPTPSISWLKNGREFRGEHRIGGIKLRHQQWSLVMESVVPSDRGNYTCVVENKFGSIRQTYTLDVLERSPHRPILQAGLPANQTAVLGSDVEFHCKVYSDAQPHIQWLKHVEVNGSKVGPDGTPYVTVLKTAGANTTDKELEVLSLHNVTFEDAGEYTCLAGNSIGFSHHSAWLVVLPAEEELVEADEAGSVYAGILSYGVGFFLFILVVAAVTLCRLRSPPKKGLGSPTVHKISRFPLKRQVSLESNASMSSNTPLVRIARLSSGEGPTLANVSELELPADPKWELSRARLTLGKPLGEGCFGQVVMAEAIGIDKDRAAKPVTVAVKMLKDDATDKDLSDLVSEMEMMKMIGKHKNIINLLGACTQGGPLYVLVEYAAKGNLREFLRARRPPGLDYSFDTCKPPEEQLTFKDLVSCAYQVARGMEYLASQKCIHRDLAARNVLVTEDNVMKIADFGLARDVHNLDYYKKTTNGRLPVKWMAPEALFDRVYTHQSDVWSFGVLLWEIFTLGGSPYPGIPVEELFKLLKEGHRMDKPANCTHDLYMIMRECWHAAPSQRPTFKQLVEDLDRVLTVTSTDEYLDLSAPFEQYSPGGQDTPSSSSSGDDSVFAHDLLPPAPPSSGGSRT
- EXPERIMENT_NOTES: phosphorylation enrichment, bacterial display (enrichment ratio); higher = better substrate or ligand; peptides without Tyr show the background;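 note: 11-residue human phosphosite peptides and single-mutation variants displayed on the E. coli surface, counted by deep sequencing, each peptide's frequency after selection divided by its frequency in the unselected input library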;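 note: frequency after pTyr selection over input frequency; kinase dosed for 20-30% of maximal phosphorylation in three min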
We'd kindly ask you to apply these phosphorylation enrichment classes: band A = under 0.7, band B = from 0.7 up to 0.9, band C = 0.9 and over

For orientation, consider the following solved cases.
[
  {
    "SEQUENCE": "KREPQYSSHSS [SIPA1L3_Y1265_G1261R]",
    "CLASS_LABEL": "band A"
  },
  {
    "SEQUENCE": "DSIRDYEDGTE [CLNS1A_Y214_M218T]",
    "CLASS_LABEL": "band C"
  },
  {
    "SEQUENCE": "CTTIHNNFMCN [TP53_Y234_Y234N_YF]",
    "CLASS_LABEL": "band A"
  },
  {
    "SEQUENCE": "YDCKWYIPLTD [BCR_Y756]",
    "CLASS_LABEL": "band B"
  },
  {
    "SEQUENCE": "HHTNEYEYDEL [TGM1_Y134_D132N]",
    "CLASS_LABEL": "band B"
  }
]

// query Assign a category based on measured phosphorylation enrichment for TIQSMYGCDVG [HLA-B_Y123_L119I] and give only the class name.
// result band A

// query Consider WGTAEYDSVVA [MAP1A_Y1883] . To which phosphorylation enrichment class does it belong?
// result band B

// query Class (by measured phosphorylation enrichment) for SDGGCYEQLFV [MC4R_Y41]
// result band B

// query Lab note: sort RGDCMYASLLG [AR_Y269_P271S] into the matching phosphorylation enrichment band.
// result band C

// query Which bin should I file KIMVIYDGACQ [VWDE_Y1035_T1032M] under?
// result band C

// query State the band of QVQQIYSDSDL [MIB1_Y376_R371Q]
// result band C

// query Into which category would you place FRDALYKFMVD [PHEX_Y250_YF] ?
// result band C

// query Class? Entry: DAVCYYRMENA [NPHS2_Y195_I192V]
// result band C

// query Which category does the recorded phosphorylation enrichment put SYSGEYGSGGG [ZG16_Y30_G32S] in?
// result band A

// query Tag the class for TDVSLYPSGGT [TENM4_Y399]
// result band A

// query Which phosphorylation enrichment band matches ILILKYPIEHG [ACTA1_Y71_T68I] ?
// result band B

----------
- Tested on: AncSZ
- EXPERIMENT_NOTES: phosphorylation enrichment, bacterial display (enrichment ratio); higher = better substrate or ligand; peptides without Tyr show the background
Classification field: Condition met = phosphorylation enrichment at or over 1; Condition not met = phosphorylation enrichment under 1.

[
  {
    "SEQUENCE": "GSSSSYGQHGS [HRNR_Y517]",
    "CLASS_LABEL": "Condition not met"
  }
]

// query For this sequence, is measured phosphorylation enrichment 1 or higher? ESKAGYRVPRS [CLDN7_Y195]
// result Condition not met

// query Hi team, for SARFRYLLAEK [LDHB_Y173_M175L] , is the recorded phosphorylation enrichment at or above 1?
// result Condition not met

// query For this sequence, is measured phosphorylation enrichment 1 or higher? APVEDYGGGGG [B4GALT6_Y382_I379V]
// result Condition not met

// query Quick check, phosphorylation enrichment >= 1? IDPFTYTPFGS [CYP3A4_Y432_I431T_YF]
// result Condition not met

// query Please tell me: is the sequence TVSQPYSFIEF [SEC22B_Y110_R108Q] at or over 1 in terms of phosphorylation enrichment?
// result Condition met
